Target: CDK6-CYCLIN D3 (Homo sapiens)
Sequence (Q00534 whole entry): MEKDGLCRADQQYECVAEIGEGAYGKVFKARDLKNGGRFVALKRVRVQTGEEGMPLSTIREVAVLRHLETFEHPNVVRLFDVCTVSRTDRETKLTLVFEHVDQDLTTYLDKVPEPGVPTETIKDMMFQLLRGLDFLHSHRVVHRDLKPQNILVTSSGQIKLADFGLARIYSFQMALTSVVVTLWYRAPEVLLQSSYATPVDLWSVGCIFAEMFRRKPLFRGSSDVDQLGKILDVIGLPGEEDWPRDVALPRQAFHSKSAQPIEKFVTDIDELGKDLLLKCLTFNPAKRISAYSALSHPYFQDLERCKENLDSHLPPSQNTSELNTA
Sequence (P30281 whole entry partner): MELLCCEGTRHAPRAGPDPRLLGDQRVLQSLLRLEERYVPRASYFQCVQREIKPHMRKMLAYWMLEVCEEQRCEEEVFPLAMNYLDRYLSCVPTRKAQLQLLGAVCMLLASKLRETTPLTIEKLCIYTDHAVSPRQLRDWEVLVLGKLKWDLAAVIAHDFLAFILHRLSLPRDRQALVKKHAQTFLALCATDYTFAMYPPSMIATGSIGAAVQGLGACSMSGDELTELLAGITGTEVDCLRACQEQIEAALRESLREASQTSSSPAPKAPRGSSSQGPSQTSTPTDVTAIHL
Test: CDK protein kinase inhibition by ADP-Glo assay, CDK6-CYCLIN D3
Format: biochemical
Conditions: CDK2 versus CDK6; Table 18
Property Measured: CDK2 Fold selectivity, CDK6

Take a look at these entries with their results.
>>> result_value("O=C1NC2CC3(C2)CC(C3)Oc2cc(ccn2)Nc2cc(n[nH]2)[C@H]2CC[C@H](C2)O1 [Compound 128]")
"E (E, <20)"
>>> result_value("C[C@H]1CC23CC(C2)(C3)NC(=O)O[C@@H]2CC[C@@H](C2)c2cc([nH]n2)Nc2ccnc(c2)O1 [Compound 102]")
"C (C, >50 and ≤100)"
>>> result_value("O=C1NC2(CCCCc3cc(ccn3)Nc3cc(n[nH]3)[C@H]3CC[C@H](C3)O1)CC2 [Compound 116]")
"E (E, <20)"
>>> result_value("O=C1NC23CC(C/C=C/c4cc(ccn4)Nc4cc(n[nH]4)[C@H]4CC[C@H](C4)O1)(C2)C3 [Compound 107]")
"E (E, <20)"

Query: Give the measured CDK2 Fold selectivity, CDK6 of C[C@@H]1CC23CC(C2)(C3)NC(=O)O[C@@H]2CC[C@@H](C2)c2cc([nH]n2)Nc2ccnc(c2)O1 [Compound 100] .
Reply: C (C, >50 and ≤100)

###

Target: CDK1-CYCLIN B (Homo sapiens)
Assay: CDK protein kinase inhibition by ADP-Glo assay, CDK1-CYCLIN B
Assay type: biochemical
Conditions: CDK2 versus CDK1; Table 8
Property Measured: CDK2 fold selectivity over CDK1

Take a look at these entries with their results.
>>> result_value("O=C1NCCCCCc2cc(cc(C(F)F)n2)Nc2cc([nH]n2)[C@H]2CC[C@H](C2)O1 [Compound 17]")
"E (E, <20)"
>>> result_value("C[C@H]1CCCOc2cc(ccn2)Nc2cc([nH]n2)[C@H]2CC[C@H](C2)OC(=O)N1 [Compound 9]")
"C (C, >50 and ≤100)"
>>> result_value("O=C1NCCCCCc2cc(ccn2)Nc2cc([nH]n2)[C@H]2CC[C@H](C2)O1 [Compound 4]")
"D (D, >20 and ≤50)"
>>> result_value("CC1(C)CCCOc2cc(ccn2)Nc2cc([nH]n2)[C@H]2CC[C@H](C2)OC(=O)N1 [Compound 13]")
"E (E, <20)"

Query: Give the measured CDK2 fold selectivity over CDK1 of O=C1NCCCCOc2cccc(c2)Nc2cc([nH]n2)[C@H]2CC[C@H](C2)O1 [Compound 105] .
Reply: C (C, >50 and ≤100)

Query: Query C[C@@H]1CCCOc2cc(ccn2)Nc2cc([nH]n2)[C@H]2CC[C@H](C2)OC(=O)N1 [Compound 10] next
Reply: D (D, >20 and ≤50)

Query: Query O=C1NCCCCOc2cc(cc(C(F)F)n2)Nc2cc([nH]n2)[C@H]2CC[C@H](C2)O1 [Compound 16] next
Reply: E (E, <20)

###

Biological target: CDK1-CYCLIN B (Homo sapiens, UniProt P06493)
Sequence (P06493 whole entry): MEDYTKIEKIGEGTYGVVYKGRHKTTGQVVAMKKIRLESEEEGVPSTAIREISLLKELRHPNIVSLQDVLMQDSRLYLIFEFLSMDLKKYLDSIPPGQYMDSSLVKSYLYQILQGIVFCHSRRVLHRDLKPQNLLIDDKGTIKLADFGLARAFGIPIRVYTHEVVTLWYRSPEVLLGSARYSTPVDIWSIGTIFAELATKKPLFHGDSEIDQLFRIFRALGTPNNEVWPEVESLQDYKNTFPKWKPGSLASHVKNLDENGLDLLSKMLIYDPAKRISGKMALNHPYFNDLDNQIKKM
Sequence (P14635 whole entry partner): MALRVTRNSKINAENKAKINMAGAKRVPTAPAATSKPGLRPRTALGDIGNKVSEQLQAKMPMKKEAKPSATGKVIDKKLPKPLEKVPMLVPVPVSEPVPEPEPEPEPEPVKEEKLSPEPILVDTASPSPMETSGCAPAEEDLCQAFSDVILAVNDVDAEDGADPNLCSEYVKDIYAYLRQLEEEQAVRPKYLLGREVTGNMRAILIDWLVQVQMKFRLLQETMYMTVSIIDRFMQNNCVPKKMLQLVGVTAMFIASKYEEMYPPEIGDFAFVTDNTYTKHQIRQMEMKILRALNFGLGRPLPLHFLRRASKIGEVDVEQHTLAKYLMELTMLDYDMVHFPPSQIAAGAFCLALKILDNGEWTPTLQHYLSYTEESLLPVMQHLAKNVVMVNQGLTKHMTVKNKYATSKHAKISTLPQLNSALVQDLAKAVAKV
Experiment: CDK protein kinase inhibition by ADP-Glo assay, CDK1-CYCLIN B
Type: biochemical
Details: ADP-Glo, 1000 μM ATP; Table 15; read-out: CDK1-CYCLINB, IC50
pIC50: −log10 of the molar value.
Property Measured: pIC50

Query: Give the measured pIC50 of `O=C1NC23CC(C/C=C/c4cncc(c4)Nc4cc(n[nH]4)[C@H]4CC[C@H](C4)O1)(C2)C3` .
Reply: ≥ 8.00

Query: Query `C[C@H]1OCCCNC(=O)O[C@@H]2CC[C@@H](C2)c2cc([nH]n2)Nc2ccnc1c2` next
Reply: 7.00 to 7.30

###

Biological target: CDK4-CYCLIN D1 (Homo sapiens, UniProt P11802)
Sequence (P11802 whole entry): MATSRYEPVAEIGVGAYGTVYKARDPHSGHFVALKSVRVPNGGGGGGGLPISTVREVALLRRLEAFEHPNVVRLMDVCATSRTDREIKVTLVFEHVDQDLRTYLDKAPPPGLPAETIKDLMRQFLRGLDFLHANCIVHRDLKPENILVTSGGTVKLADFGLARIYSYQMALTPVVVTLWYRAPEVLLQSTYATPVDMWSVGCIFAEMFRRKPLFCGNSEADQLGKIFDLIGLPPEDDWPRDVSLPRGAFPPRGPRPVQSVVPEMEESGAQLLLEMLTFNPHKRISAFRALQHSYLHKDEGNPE
Sequence (P24385 whole entry partner): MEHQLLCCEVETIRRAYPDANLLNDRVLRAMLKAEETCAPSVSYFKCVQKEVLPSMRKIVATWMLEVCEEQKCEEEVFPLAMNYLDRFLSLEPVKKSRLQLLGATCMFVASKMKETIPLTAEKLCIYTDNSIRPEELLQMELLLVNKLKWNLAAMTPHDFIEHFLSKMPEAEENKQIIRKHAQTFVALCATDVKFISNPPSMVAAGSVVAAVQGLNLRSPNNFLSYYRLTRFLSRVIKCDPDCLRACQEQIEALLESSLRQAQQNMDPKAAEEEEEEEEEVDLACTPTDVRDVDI
Assay: CDK protein kinase inhibition by ADP-Glo assay, CDK4-CYCLIN D1
Format: biochemical
Settings: ADP-Glo, 1000 μM ATP; Table 33; read-out: CDK4-CYCLIND1, IC50
Property Measured: IC50

Query: Hello, I am looking for reported IC50 with CDK4-CYCLIN D1 (Homo sapiens, UniProt P11802) for C[C@H]1CCCOc2cc(ccn2)Nc2[nH]nc(c2F)[C@H]2CC[C@H](C2)OC(=O)N1 [Compound 183] . Could you help?
Reply: > 500 nM

###

Biological target: CDK6-CYCLIN D3 (Homo sapiens)
Experiment: CDK protein kinase inhibition by ADP-Glo assay, CDK6-CYCLIN D3
Assay type: biochemical
Details: ADP-Glo, 1000 μM ATP; Table 11; read-out: CDK6-CYCLIND3, IC50
Please go through the items and note down their IC50.

Query: Hello, I am looking for reported IC50 with CDK6-CYCLIN D3 (Homo sapiens) for `O=C1NC23CC(CCOc4cncc(c4)Nc4cc(n[nH]4)[C@H]4CC[C@H](C4)O1)(C2)C3` . Could you help?
Reply: 10 to 50 nM

Query: Query `O=C1N[C@H]2C[C@H](COc3cc(ccn3)Nc3cc(n[nH]3)[C@H]3CC[C@H](C3)O1)C2` next
Reply: 100 to 500 nM

Query: Query `C[C@H]1CCCNC(=O)O[C@@H]2CC[C@@H](C2)c2cc([nH]n2)Nc2ccnc(c2)O1` next
Reply: 100 to 500 nM

Query: Query `O=C1NC23CC(COc4cc(cc(C(F)F)n4)Nc4cc([nH]n4)[C@H]4CC[C@H](C4)O1)(C2)C3` next
Reply: > 500 nM

###

Molecular target: CDK9-CYCLIN T1 (Homo sapiens, UniProt P50750)
Sequence (P50750 whole entry): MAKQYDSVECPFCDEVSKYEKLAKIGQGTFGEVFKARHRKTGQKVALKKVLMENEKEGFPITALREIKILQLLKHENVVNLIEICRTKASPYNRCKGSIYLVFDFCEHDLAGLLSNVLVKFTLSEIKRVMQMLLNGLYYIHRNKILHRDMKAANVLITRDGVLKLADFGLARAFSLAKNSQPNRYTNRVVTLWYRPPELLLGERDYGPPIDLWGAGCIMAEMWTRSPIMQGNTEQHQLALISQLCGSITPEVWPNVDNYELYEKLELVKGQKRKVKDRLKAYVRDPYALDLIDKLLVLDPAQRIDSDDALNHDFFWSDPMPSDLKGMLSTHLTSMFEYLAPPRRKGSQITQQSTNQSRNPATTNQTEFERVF
Sequence (O60563 whole entry partner): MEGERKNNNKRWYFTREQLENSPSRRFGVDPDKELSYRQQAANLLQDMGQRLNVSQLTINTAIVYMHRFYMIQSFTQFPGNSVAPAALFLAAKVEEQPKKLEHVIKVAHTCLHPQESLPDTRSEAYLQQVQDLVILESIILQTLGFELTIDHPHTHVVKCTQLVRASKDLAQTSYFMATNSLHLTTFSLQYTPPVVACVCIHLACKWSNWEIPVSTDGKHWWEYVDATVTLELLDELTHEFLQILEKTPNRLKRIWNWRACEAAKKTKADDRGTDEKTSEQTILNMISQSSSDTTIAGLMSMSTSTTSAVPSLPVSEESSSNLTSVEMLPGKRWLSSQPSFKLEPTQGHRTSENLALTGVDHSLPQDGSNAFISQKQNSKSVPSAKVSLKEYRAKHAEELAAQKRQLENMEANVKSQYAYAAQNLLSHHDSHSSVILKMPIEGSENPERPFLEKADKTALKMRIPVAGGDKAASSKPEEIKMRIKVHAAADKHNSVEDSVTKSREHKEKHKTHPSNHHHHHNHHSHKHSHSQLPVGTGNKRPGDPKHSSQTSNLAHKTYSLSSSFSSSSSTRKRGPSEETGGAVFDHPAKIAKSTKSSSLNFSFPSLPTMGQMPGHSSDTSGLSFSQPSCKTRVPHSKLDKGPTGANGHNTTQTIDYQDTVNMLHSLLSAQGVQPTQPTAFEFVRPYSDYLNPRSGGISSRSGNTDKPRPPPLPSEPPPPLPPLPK
Assay: CDK protein kinase inhibition by ADP-Glo assay, CDK9-CYCLIN T1
Assay type: biochemical
Conditions: CDK2 versus CDK9; Table 14
Property Measured: CDK2 Fold selectivity, CDK9

>>> result_value("C[C@@H]1CCCOc2cncc(c2)Nc2cc(n[nH]2)[C@H]2CC[C@H](C2)OC(=O)N1")
"C (C, >50 and ≤100)"
>>> result_value("C[C@H]1CCCOc2cncc(c2)Nc2cc(n[nH]2)[C@H]2CC[C@H](C2)OC(=O)N1")
"C (C, >50 and ≤100)"

###

Biological target: CDK4-CYCLIN D1 (Homo sapiens, UniProt P11802)
Test: CDK protein kinase inhibition by ADP-Glo assay, CDK4-CYCLIN D1
Assay type: biochemical
Settings: ADP-Glo, 1000 μM ATP; Table 17; read-out: CDK4-CYCLIND1, IC50
pIC50: −log10 of the molar value.
Please go through the items and note down their pIC50.

Query: Give the measured pIC50 of O=C1NC2CC3(C2)CC(C3)Oc2cc(ccn2)Nc2cc(n[nH]2)[C@H]2CC[C@H](C2)O1 [Compound 128] .
Reply: 7.30 to 8.00

Query: Query O=C1NC23CC(C/C=C/c4cc(ccn4)Nc4cc(n[nH]4)[C@H]4CC[C@H](C4)O1)(C2)C3 [Compound 107] next
Reply: 7.30 to 8.00

Query: Query C[C@H]1CC23CC(C2)(C3)NC(=O)O[C@@H]2CC[C@@H](C2)c2cc([nH]n2)Nc2ccnc(c2)O1 [Compound 102] next
Reply: 6.30 to 7.00

Query: Query O=C1NC2(CCCCc3cc(ccn3)Nc3cc(n[nH]3)[C@H]3CC[C@H](C3)O1)CC2 [Compound 116] next
Reply: 7.30 to 8.00

Query: Query C[C@@H]1CC23CC(C2)(C3)NC(=O)O[C@@H]2CC[C@@H](C2)c2cc([nH]n2)Nc2ccnc(c2)O1 [Compound 100] next
Reply: 6.30 to 7.00

###

Molecular target: CDK9-CYCLIN T1 (Homo sapiens, UniProt P50750)
Assay: CDK protein kinase inhibition by ADP-Glo assay, CDK9-CYCLIN T1
Assay type: biochemical
Settings: CDK2 versus CDK9; Table 20
Experimental: CDK Protein Kinase Inhibition by ADP-Glo Assay This ADP-Glo assay measures ADP formed from a kinase reaction and indirectly quantifies the phosphorylation of peptide substrates by the CDK/cyclin protein complexes. […] At the end of the incubation, the reaction is quenched, and conversion is detected by luminescence using the Promega ADP-Glo™ Kinase Assay kit (catalog #V9102). […]
Property Measured: CDK2 Fold selectivity, CDK9

Take a look at these entries with their results.
>>> result_value("C[C@@H]1CC/C=C/c2cc(ccn2)Nc2cc(n[nH]2)[C@H]2CC[C@H](C2)OC(=O)N1")
"E (E, <20)"
>>> result_value("C[C@H]1CC/C=C/c2cc(ccn2)Nc2cc(n[nH]2)[C@H]2CC[C@H](C2)OC(=O)N1")
"D (D, >20 and ≤50)"
>>> result_value("C[C@H]1CCCCc2cc(ccn2)Nc2cc(n[nH]2)[C@H]2CC[C@H](C2)OC(=O)N1")
"D (D, >20 and ≤50)"
>>> result_value("O=C1NCCCCC(F)(F)c2cc(ccn2)Nc2cc([nH]n2)[C@H]2CC[C@H](C2)O1")
"E (E, <20)"
>>> result_value("C[C@@H]1CCCCc2cc(ccn2)Nc2cc(n[nH]2)[C@H]2CC[C@H](C2)OC(=O)N1")
"E (E, <20)"

Continue with the next compound.
Query: Give the measured CDK2 Fold selectivity, CDK9 of `C[C@@H]1CCC#Cc2cc(ccn2)Nc2cc(n[nH]2)[C@H]2CC[C@H](C2)OC(=O)N1` .
Reply: D (D, >20 and ≤50)
